Overview of recorded EC50 for various compounds
target: SALL4 (Homo sapiens, UniProt Q96SW2+Q9UJQ4)
Construct: endogenous in cells
Sequence (Q9UJQ4 whole entry): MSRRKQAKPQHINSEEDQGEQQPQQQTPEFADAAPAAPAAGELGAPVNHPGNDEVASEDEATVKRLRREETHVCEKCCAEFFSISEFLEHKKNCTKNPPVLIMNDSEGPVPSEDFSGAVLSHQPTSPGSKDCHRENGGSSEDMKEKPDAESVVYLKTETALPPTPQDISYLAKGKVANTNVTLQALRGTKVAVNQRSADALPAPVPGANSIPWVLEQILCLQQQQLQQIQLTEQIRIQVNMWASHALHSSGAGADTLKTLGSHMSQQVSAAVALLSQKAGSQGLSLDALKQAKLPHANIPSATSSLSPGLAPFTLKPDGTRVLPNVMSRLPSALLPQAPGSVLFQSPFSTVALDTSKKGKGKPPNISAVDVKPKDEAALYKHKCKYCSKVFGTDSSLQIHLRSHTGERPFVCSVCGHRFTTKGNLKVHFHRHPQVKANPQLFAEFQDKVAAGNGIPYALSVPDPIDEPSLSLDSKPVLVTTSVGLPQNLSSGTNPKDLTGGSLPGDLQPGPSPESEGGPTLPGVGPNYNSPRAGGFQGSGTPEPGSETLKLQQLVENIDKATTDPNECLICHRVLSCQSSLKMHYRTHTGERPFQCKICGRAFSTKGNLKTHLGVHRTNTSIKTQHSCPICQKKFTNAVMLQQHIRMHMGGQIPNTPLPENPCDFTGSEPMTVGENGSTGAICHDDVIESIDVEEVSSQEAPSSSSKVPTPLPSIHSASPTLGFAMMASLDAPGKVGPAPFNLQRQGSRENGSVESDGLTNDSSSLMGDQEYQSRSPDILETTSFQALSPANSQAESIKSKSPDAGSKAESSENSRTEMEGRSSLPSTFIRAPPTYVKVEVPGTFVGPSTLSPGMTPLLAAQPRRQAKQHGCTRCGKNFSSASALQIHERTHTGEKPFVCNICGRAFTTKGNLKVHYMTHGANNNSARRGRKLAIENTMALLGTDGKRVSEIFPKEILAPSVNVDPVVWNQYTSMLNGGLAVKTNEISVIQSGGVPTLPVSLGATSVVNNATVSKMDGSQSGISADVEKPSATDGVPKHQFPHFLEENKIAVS
Sequence (Q96SW2 whole entry): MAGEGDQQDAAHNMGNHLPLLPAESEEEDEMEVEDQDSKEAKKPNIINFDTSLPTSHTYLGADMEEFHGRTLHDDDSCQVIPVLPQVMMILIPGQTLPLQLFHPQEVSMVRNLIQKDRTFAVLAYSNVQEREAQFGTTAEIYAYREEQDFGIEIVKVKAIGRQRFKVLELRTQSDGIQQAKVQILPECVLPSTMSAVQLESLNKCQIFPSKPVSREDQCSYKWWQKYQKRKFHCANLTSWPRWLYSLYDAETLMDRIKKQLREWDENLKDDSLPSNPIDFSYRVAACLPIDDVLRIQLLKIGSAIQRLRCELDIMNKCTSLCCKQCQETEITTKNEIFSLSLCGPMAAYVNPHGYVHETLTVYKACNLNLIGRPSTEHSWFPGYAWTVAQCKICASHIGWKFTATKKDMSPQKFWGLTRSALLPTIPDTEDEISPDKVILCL
Sequence (Q16531 whole entry partner): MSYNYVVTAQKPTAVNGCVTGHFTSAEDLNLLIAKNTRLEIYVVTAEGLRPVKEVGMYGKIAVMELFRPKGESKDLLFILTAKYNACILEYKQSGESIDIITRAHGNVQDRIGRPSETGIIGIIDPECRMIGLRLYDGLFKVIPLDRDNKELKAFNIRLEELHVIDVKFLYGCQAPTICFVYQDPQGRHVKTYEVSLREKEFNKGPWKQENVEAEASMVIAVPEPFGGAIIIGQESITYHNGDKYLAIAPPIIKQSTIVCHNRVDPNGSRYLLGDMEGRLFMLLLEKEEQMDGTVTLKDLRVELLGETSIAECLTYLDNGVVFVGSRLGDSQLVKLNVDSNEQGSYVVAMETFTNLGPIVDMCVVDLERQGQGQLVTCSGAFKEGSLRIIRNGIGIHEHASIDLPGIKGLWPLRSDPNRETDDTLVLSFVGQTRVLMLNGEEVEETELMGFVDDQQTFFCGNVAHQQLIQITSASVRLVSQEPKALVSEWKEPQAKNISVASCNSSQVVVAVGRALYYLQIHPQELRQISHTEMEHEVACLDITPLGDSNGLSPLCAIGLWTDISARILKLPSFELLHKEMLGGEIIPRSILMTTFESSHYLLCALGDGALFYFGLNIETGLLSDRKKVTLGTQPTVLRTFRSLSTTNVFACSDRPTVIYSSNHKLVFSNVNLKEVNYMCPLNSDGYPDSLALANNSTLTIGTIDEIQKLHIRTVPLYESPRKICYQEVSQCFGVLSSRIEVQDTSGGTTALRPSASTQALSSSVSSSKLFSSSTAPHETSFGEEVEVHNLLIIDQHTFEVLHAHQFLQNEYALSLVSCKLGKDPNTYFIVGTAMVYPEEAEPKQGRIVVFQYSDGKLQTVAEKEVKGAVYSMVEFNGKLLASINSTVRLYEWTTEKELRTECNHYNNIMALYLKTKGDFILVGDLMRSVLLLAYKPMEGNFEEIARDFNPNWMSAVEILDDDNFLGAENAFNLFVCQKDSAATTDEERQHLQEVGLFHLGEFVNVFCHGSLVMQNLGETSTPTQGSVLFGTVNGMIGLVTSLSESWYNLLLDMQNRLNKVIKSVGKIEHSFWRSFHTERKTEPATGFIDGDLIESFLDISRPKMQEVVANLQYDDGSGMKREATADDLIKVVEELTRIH
assayText: HiBiT degradation assay, NCCIT/SALL4-HiBiT KI cells
runParameters: degradation, 2 hr incubation, top conc 10 uM, N ≥ 3
Reply numerically in nM, unit not repeated.

- compound: "O=C1CCC(N2C(=O)c3ccc(C4=C[C@@]4(C(=O)OCC(Cl)(Cl)Cl)c4ccc(Br)cc4)cc3C2=O)C(=O)N1 (stereo partly shown) [Compound 22b]"
  EC50 (nM): 2400

(Q) // map O=C1CCC(N2Cc3cc(C4=C[C@@]4(C(=O)OCC(Cl)(Cl)Cl)c4ccc(Br)cc4)ccc3C2=O)C(=O)N1 (stereo partly shown) [Compound 21b] to recorded EC50 (system: SALL4 (Homo sapiens, UniProt Q96SW2+Q9UJQ4))
(A) 75

(Q) // map O=C1CCC(N2C(=O)c3ccc(C4=C[C@]4(C(=O)OCC(Cl)(Cl)Cl)c4ccc(Br)cc4)cc3C2=O)C(=O)N1 (stereo partly shown) [Compound 22a] to recorded EC50 (system: SALL4 (Homo sapiens, UniProt Q96SW2+Q9UJQ4))
(A) 3600

(Q) // map O=C1CCC(N2Cc3cc([C@H]4C[C@@]4(C(=O)OCC(Cl)(Cl)Cl)c4ccc(Br)cc4)ccc3C2=O)C(=O)N1 (stereo partly shown) [Compound 15b] to recorded EC50 (system: SALL4 (Homo sapiens, UniProt Q96SW2+Q9UJQ4))
(A) 160

----------
target: CK1α (Homo sapiens, UniProt P48729+Q96SW2)
Construct: expressed in transfected cells; host or cells: MDS-L
Sequence (P48729 whole entry, one chain of several): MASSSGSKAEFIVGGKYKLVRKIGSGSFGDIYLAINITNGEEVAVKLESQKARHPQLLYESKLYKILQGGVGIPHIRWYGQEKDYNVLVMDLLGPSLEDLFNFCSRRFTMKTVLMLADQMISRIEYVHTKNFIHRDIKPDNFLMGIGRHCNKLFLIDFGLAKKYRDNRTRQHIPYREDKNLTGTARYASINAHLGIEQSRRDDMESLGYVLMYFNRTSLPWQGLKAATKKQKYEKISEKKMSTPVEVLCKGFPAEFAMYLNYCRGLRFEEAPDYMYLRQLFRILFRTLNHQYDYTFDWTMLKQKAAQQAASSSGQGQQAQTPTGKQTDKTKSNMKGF
assayText: ePL degradation assay, MDS-L/CK1α ePL OE_GSPT1G575N OE cells
Type: cell-based
runParameters: depth of degradation (100% = no reduction, 0% = complete degradation), 4 hr, N ≥ 3
Returns one of true (1) or false (0); true (1) when CK1a Ymin is >= 90%.

- compound: "O=C1CCC(N2C(=O)c3ccc([C@@H]4C[C@]4(C(=O)OCC(Cl)(Cl)Cl)c4ccc(Br)cc4)cc3C2=O)C(=O)N1 (stereo partly drawn) [Compound 16a]"
  discreteLabel: "true (1)"
- compound: "O=C1CCC(N2C(=O)c3ccc(C4=C[C@@]4(C(=O)OCC(Cl)(Cl)Cl)c4ccc(Br)cc4)cc3C2=O)C(=O)N1 (stereo partly drawn) [Compound 22b]"
  discreteLabel: "false (0)"
- compound: "O=C1CCC(N2Cc3c(cccc3[C@@H]3C[C@]3(C(=O)OCC(Cl)(Cl)Cl)c3ccc(Br)cc3)C2=O)C(=O)N1 (stereo partly drawn) [Compound 13a]"
  discreteLabel: "false (0)"
- compound: "O=C1CCC(N2Cc3ccc([C@H]4C[C@@]4(C(=O)OCC(Cl)(Cl)Cl)c4ccc(Br)cc4)cc3C2=O)C(=O)N1 (stereo partly drawn) [Compound 17b]"
  discreteLabel: "true (1)"

From here, focus on the item given below.
(Q) Does O=C1CCC(N2Cc3cccc(C4=C[C@]4(C(=O)OCC(Cl)(Cl)Cl)c4ccc(Br)cc4)c3C2=O)C(=O)N1 (stereo partly drawn) [Compound 24a] have a reported CK1a Ymin of at least 90%?
(A) true (1)

----------
In what follows, each item is paired with its IC50 for CRBN (Homo sapiens).
Reply numerically in nM, unit not repeated.

- molecule: "O=C1CCC(N2C(=O)c3cccc([C@H]4C[C@@]4(C(=O)OCC(Cl)(Cl)Cl)c4ccc(Br)cc4)c3C2=O)C(=O)N1 (some centres unmarked) [Compound 14b]"
  parameterMeasured: "IC50"
  experimentalValue: 7900

(Q) // map O=C1CCC(N2C(=O)c3ccc(C4=C[C@@]4(C(=O)OCC(Cl)(Cl)Cl)c4ccc(Br)cc4)cc3C2=O)C(=O)N1 (some centres unmarked) [Compound 22b] to recorded IC50 (system: CRBN (Homo sapiens))
(A) 7800

(Q) // map O=C1CCC(N2C(=O)c3ccc([C@@H]4C[C@]4(C(=O)OCC(Cl)(Cl)Cl)c4ccc(Br)cc4)cc3C2=O)C(=O)N1 (some centres unmarked) [Compound 16a] to recorded IC50 (system: CRBN (Homo sapiens))
(A) 5300

(Q) // map O=C1CCC(N2Cc3cc([C@H]4C[C@@]4(C(=O)OCC(Cl)(Cl)Cl)c4ccc(Br)cc4)ccc3C2=O)C(=O)N1 (some centres unmarked) [Compound 15b] to recorded IC50 (system: CRBN (Homo sapiens))
(A) 1300

(Q) // map O=C1CCC(N2C(=O)c3ccc(C4=C[C@]4(C(=O)OCC(Cl)(Cl)Cl)c4ccc(Br)cc4)cc3C2=O)C(=O)N1 (some centres unmarked) [Compound 22a] to recorded IC50 (system: CRBN (Homo sapiens))
(A) 5700

(Q) // map O=C1CCC(N2Cc3c(cccc3C3=C[C@@]3(C(=O)OCC(Cl)(Cl)Cl)c3ccc(Br)cc3)C2=O)C(=O)N1 (some centres unmarked) [Compound 19b] to recorded IC50 (system: CRBN (Homo sapiens))
(A) 350

(Q) // map O=C1CCC(N2Cc3cc(C4=C[C@@]4(C(=O)OCC(Cl)(Cl)Cl)c4ccc(Br)cc4)ccc3C2=O)C(=O)N1 (some centres unmarked) [Compound 21b] to recorded IC50 (system: CRBN (Homo sapiens))
(A) 800

(Q) // map O=C1CCC(N2Cc3cc(C4=C[C@]4(C(=O)OCC(Cl)(Cl)Cl)c4ccc(Br)cc4)ccc3C2=O)C(=O)N1 (some centres unmarked) [Compound 21a] to recorded IC50 (system: CRBN (Homo sapiens))
(A) 590

(Q) // map O=C1CCC(N2Cc3cc([C@@H]4C[C@]4(C(=O)OCC(Cl)(Cl)Cl)c4ccc(Br)cc4)ccc3C2=O)C(=O)N1 (some centres unmarked) [Compound 15a] to recorded IC50 (system: CRBN (Homo sapiens))
(A) 390
